IC50 by entry:
# ASSAY_TARGET: EGFR L858R/T790M/C797S (Homo sapiens, UniProt P00533, C797S/L858R/T790M)
# Sequence (P00533 25-1210 T790M/C797S/L858R): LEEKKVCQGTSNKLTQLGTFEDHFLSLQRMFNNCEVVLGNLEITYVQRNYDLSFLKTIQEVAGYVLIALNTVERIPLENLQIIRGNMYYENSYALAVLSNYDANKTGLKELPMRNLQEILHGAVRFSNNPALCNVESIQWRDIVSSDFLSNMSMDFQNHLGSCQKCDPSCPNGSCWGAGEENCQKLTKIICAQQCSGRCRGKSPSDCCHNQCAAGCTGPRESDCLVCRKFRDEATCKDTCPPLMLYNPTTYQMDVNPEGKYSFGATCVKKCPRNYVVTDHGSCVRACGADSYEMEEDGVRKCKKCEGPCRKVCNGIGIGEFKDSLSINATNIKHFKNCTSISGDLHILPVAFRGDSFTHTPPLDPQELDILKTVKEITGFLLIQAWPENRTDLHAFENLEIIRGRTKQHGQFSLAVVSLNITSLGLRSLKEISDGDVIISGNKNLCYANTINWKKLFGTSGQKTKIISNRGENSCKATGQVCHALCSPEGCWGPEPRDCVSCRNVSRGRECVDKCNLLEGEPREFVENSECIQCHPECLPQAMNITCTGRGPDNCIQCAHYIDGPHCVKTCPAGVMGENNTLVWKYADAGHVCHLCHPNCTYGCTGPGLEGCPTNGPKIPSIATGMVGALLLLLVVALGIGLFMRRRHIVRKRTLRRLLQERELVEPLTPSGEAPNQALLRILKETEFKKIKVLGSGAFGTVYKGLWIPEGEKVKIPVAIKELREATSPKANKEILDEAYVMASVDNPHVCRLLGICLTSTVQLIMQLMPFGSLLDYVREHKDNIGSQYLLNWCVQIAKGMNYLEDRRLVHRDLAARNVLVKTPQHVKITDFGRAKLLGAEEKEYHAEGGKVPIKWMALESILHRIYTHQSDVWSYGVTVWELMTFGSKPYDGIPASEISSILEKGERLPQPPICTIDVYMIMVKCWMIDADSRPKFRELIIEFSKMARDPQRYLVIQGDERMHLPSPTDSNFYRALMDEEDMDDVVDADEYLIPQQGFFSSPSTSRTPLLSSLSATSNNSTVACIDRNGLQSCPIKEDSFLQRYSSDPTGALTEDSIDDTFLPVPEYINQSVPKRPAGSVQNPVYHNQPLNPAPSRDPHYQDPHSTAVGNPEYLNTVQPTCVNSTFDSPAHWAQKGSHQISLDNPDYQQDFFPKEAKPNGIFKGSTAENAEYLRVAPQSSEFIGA
# METHOD_DESCRIPTION: Biochemical EGFR kinase assay (Lance Ultra TR-FRET), triple mutant L858R/T790M/C797S
# RECORDED_CONDITIONS: Km ATP; read-out: IC50 L858R/T790M/C797S (nM) Km ATP
// return numeric value only (unit: nM, not printed)

The examples below pair each entry with its known result.
CN[C@H]1CC[C@@H](Oc2cc(Nc3ccnc(-c4cnn(S(=O)(=O)C5CC5)c4)n3)ncc2-c2ccn(C(F)F)n2)CC1 [Example 65] ... 0.6
CC1CC(Nc2cc(Nc3ccnc(-c4cnn(S(=O)(=O)C5CC5)c4)n3)ncc2-c2ccn(C(F)F)n2)CCC1O (stereo not drawn) [Example 105] ... 2.5

Read the next record carefully.
stdin: What value of measured IC50 is listed for O=S(=O)(C1CC1)n1cc(-c2nccc(Nc3cc(NC[C@H]4CC[C@@H](O)C4)c(-c4ccn(CC(F)(F)F)n4)cn3)n2)cn1 [Example 268] ?
stdout: 0.3

---

# ASSAY_TARGET: EGFR L858R/T790M/C797S (Homo sapiens, UniProt P00533, C797S/L858R/T790M)
# METHOD_DESCRIPTION: Biochemical EGFR kinase assay (Lance Ultra TR-FRET), triple mutant L858R/T790M/C797S
# RECORDED_CONDITIONS: IC50 L858R/T790M/C797S (nM) 100 μM ATP, 100 μM ATP
MEASURED_ATTRIBUTE: IC50 (nM)
// return numeric value only (unit: nM, not printed)

The examples below pair each entry with its known result.
CN(CC(F)F)C[C@H]1CC[C@@H](Nc2cc(Nc3ccnc(-c4cnn(S(=O)(=O)C5CC5)c4)n3)ncc2-c2ccn(C)n2)CC1 ... 5.4
Cn1nc(-c2cnc(Nc3ccnc(-c4cnn(S(=O)(=O)C5CC5)c4)n3)cc2N[C@H]2CC[C@@H](CO)CC2)cc1C(F)(F)F ... 2.1

Read the next record carefully.
stdin: What value of measured IC50 is listed for "C[C@]1(O)CCCN(c2cc(Nc3ccnc(-c4cnn(S(=O)(=O)C5CC5)c4)n3)ncc2-c2ccn(C(F)F)n2)C1" ?
stdout: 4.6

---

# ASSAY_TARGET: EGFR wildtype (WT) (Homo sapiens)
# Sequence (P00533 25-1210): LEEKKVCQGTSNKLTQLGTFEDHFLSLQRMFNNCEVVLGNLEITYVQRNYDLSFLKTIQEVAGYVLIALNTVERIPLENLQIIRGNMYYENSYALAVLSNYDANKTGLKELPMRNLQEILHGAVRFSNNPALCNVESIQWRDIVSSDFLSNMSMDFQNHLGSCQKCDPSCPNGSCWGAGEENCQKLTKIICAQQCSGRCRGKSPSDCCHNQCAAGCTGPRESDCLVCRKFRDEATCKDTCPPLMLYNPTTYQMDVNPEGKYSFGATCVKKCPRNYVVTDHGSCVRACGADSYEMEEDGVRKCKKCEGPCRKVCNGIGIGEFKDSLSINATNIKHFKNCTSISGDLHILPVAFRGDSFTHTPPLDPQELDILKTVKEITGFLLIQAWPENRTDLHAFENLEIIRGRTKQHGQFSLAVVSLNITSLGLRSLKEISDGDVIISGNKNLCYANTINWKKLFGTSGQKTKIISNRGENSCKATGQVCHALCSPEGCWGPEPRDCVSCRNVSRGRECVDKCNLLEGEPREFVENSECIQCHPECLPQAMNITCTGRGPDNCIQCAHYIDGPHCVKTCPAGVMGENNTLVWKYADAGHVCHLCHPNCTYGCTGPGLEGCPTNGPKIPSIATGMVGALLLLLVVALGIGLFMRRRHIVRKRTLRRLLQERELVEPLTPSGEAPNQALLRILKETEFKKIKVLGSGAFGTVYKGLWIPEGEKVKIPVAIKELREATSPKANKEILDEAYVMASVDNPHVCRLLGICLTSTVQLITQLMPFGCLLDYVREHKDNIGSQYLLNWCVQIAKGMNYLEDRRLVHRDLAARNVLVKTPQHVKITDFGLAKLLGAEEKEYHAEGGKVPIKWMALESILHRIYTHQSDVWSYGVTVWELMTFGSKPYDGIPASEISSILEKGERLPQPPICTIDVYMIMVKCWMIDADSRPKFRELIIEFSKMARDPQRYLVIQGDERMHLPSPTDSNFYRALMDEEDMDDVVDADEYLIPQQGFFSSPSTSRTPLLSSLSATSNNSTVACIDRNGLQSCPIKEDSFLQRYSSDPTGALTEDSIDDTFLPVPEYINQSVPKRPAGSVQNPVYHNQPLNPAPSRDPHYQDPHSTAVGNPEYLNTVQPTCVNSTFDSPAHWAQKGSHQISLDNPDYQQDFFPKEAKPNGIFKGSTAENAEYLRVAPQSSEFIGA
# METHOD_DESCRIPTION: Biochemical EGFR kinase assay (Lance Ultra TR-FRET), wildtype
# RECORDED_CONDITIONS: IC50 WT (nM) 100 μM ATP, 100 μM ATP
MEASURED_ATTRIBUTE: IC50 (nM)
// return numeric value only (unit: nM, not printed)

The examples below pair each entry with its known result.
Cn1ccc(-c2cnc(Nc3ccnc(-c4cnn(S(=O)(=O)C5CC5)c4)n3)cc2N[C@H]2CC[C@@H](NCCF)CC2)n1 ... 5240
CN(C)C(=O)C[C@H]1CC[C@@H](Nc2cc(Nc3ccnc(-c4cnn(S(=O)(=O)C5CC5)c4)n3)ncc2-c2ccn(C(F)F)n2)CC1 ... 3960

stdin: What value of measured IC50 is listed for "CN(C)C[C@H]1CC[C@@H](Nc2cc(Nc3ccnc(-c4cnn(S(=O)(=O)C5CC5)c4)n3)ncc2-c2ccn(C(F)F)n2)CC1" ?
stdout: 145

---

# ASSAY_TARGET: EGFR L858R/T790M/C797S (Homo sapiens, UniProt P00533, C797S/L858R/T790M)
# METHOD_DESCRIPTION: Biochemical EGFR kinase assay (Lance Ultra TR-FRET), triple mutant L858R/T790M/C797S
# RECORDED_CONDITIONS: IC50 L858R/T790M/C797S (nM) 100 μM ATP, 100 μM ATP
# label = bin(measured IC50), where bins are bottom: < 1 nM; middle: ≥ 1 nM and < 3 nM; top: ≥ 3 nM

Use the examples below as a reference point.
C[C@]1(O)CC[C@@H](Nc2cc(Nc3ccnc(-c4ccc(F)nc4)n3)ncc2-c2ccn(C(F)F)n2)CC1 ... top
C[C@]1(O)CC[C@@H](Nc2cc(Nc3ccnc(-c4cnn(S(=O)(=O)C5CC5)c4)n3)ncc2-c2ccn(C(F)F)n2)CC1 ... middle
COc1ncc(-c2nccc(Nc3cc(N[C@H]4CC[C@@](C)(O)CC4)c(-c4ccn(C(F)F)n4)cn3)n2)cn1 ... top
Cn1nc(-c2cnc(Nc3ccnc(-c4cnn(S(=O)(=O)C5CC5)c4)n3)cc2N[C@H]2CC[C@@H](CCO)CC2)cc1C(F)(F)F ... top
O=S(=O)(C1CC1)n1cc(-c2nccc(Nc3cc(NC4CCC(NCCO)CC4)c(-c4csc(C(F)(F)F)n4)cn3)n2)cn1 (centres unmarked) ... top

stdin: In plain terms, what class is CC1(O)CCC(Nc2cc(Nc3ccnc(-c4cnn(C5CCCO5)c4)n3)ncc2-c2ccn(C(F)F)n2)CC1 (centres unmarked) ?
stdout: top

stdin: In plain terms, what class is CN(C)CCNC1CCC(Nc2cc(Nc3ccnc(-c4cnn(S(=O)(=O)C5CC5)c4)n3)ncc2-c2ccn(C(F)F)n2)CC1 (centres unmarked) ?
stdout: bottom

stdin: In plain terms, what class is "O=S(=O)(C1CC1)n1cc(-c2nccc(Nc3cc(N[C@H]4CC[C@@H](NCCF)CC4)c(-c4ccn(CC(F)F)n4)cn3)n2)cn1" ?
stdout: bottom

stdin: In plain terms, what class is "O=S(=O)(C1CC1)n1cc(-c2nccc(Nc3cc(N[C@H]4CC[C@@H](CCO)CC4)c(-c4ccn(CC(F)(F)F)n4)cn3)n2)cn1" ?
stdout: middle

stdin: In plain terms, what class is "Cn1nc(-c2cnc(Nc3ccnc(-c4cnn(S(=O)(=O)C5CC5)c4)n3)cc2N[C@H]2CC[C@@H](CN3CCC3)CC2)cc1C(F)(F)F" ?
stdout: bottom

stdin: In plain terms, what class is "O=S(=O)(C1CC1)n1cc(-c2nccc(Nc3cc(N[C@H]4CCC[C@H](CO)C4)c(-c4ccn(CC(F)(F)F)n4)cn3)n2)cn1" ?
stdout: middle

---

# ASSAY_TARGET: EGFR L858R/C797S (Homo sapiens, UniProt P00533, C797S/L858R)
# Sequence (P00533 25-1210 C797S/L858R): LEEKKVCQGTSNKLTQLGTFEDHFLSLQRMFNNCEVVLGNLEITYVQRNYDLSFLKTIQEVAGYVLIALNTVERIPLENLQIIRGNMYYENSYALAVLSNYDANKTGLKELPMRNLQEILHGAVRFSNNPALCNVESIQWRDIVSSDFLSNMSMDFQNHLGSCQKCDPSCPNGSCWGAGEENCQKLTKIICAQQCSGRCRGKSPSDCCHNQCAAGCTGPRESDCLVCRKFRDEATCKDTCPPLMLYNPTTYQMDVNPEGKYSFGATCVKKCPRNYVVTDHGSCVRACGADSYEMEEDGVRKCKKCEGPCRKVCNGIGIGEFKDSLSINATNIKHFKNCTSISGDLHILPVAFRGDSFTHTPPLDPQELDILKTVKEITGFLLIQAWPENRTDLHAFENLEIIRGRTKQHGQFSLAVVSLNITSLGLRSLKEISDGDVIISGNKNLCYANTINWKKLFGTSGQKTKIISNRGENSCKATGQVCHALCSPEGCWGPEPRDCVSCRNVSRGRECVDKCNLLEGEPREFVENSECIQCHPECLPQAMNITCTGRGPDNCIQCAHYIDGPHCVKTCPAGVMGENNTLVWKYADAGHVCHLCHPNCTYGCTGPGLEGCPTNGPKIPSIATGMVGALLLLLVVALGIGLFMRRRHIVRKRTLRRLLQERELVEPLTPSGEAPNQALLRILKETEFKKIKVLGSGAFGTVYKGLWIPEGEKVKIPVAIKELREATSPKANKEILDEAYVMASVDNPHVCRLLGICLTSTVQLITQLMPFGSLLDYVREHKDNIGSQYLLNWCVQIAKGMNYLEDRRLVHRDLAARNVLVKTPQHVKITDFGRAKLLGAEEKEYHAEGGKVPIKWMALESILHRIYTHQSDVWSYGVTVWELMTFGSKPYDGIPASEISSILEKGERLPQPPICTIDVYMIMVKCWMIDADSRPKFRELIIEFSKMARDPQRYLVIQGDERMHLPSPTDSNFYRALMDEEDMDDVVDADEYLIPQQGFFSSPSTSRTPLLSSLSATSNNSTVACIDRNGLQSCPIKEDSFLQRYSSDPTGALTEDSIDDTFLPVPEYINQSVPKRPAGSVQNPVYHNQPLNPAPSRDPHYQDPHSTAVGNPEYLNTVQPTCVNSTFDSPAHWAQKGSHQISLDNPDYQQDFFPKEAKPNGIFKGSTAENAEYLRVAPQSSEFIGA
# METHOD_DESCRIPTION: Biochemical EGFR kinase assay (Lance Ultra TR-FRET), double mutant L858R/C797S
# RECORDED_CONDITIONS: IC50 L858R/C797S (nM) 100 μM ATP, 100 μM ATP
# Description: Biochemical EGFR kinase assays were conducted using Lance Ultra time-resolved fluorescence resonance energy transfer (TR-FRET) technology from Perkin-Elmer. […] Each kinase reactions were incubated at room temperature for 1 hour and then stopped by the addition of 4 μL of stop solution (10 mM EDTA). […] After 60 minutes incubation at room temperature the LANCE signal was measured on an EnVision Multilabel Reader (Perkin-Elmer). […]
MEASURED_ATTRIBUTE: log10(IC50) (log10 of the value in nM)
Remember, log10 of IC50, in nM.

The examples below pair each entry with its known result.
O=S(=O)(C1CC1)n1cc(-c2nccc(Nc3cc(N[C@H]4CCC[C@H](CO)C4)c(-c4ccn(C(F)F)n4)cn3)n2)cn1 ... 1.25
CC(O)C(C)(C)Nc1cc(Nc2ccnc(-c3cnn(S(=O)(=O)C4CC4)c3)n2)ncc1-c1ccn(C(F)F)n1 (stereo not shown) ... 2.39
Cn1ccc(-c2cnc(Nc3ccnc(-c4cnn(S(=O)(=O)C5CC5)c4)n3)cc2N[C@H]2CC[C@@H](CCO)CC2)n1 ... -0.10
CC(C)(O)c1nc(-c2cnc(Nc3ccnc(-c4cnn(S(=O)(=O)C5CC5)c4)n3)cc2N[C@H]2CC[C@@H](O)CC2)cs1 ... 0.48
O=S(=O)(C1CC1)n1cc(-c2nccc(Nc3cc(N[C@H]4CC[C@@H](NCCF)CC4)c(-c4cc5n(n4)CCCC5)cn3)n2)cn1 ... 0.28
CCOC(=O)c1ccn(-c2cnc(Nc3ccnc(-c4cnn(S(=O)(=O)C5CC5)c4)n3)cc2N[C@H]2CC[C@@](C)(O)CC2)n1 ... 2.09

stdin: For the record "O=S(=O)(C1CC1)n1cc(-c2nccc(Nc3cc(NC[C@H]4C[C@H](CO)C4)c(-c4ccn(C(F)F)n4)cn3)n2)cn1" , what value of log10(IC50) is listed for EGFR L858R/C797S (Homo sapiens, UniProt P00533, C797S/L858R)?
stdout: 1.43

stdin: For the record "Cn1ccc(-c2cnc(Nc3ccnc(-c4cnn(S(=O)(=O)C5CC5)c4)n3)cc2NCC2(CO)COC2)n1" , what value of log10(IC50) is listed for EGFR L858R/C797S (Homo sapiens, UniProt P00533, C797S/L858R)?
stdout: 1.39

stdin: For the record O=S(=O)(C1CC1)n1cc(-c2nccc(Nc3cc(NC4CCCCC4O)c(-c4ccn(C(F)F)n4)cn3)n2)cn1 (stereo not shown) , what value of log10(IC50) is listed for EGFR L858R/C797S (Homo sapiens, UniProt P00533, C797S/L858R)?
stdout: 2.78
